Tested on: Human lymphocyte
Assay: suppression of IgE antibody production in human lymphocyte stimulated with anti-human CD40 antibody and IL-4
Format: cell-based
Details: 216 h; IgE antibody production by human lymphocyte, anti-human CD40 antibody + IL-4, cultured for 9 days, ELISA
measure-name: IC50 (ng/mL)
Reply with just the number (in ng/mL).

{"columns": ["compound", "tested-on", "IC50 (ng/mL)"],
 "data": [
  ["CC/C(=C\\c1c(C)c(F)c(-c2ccc(NC(C)C)cc2)c(C)c1F)C(=O)O [Compound 493]", "Human lymphocyte", 9.4],
  ["C/C(=C\\c1c(C)c(F)c(-c2ccc(NC(C)C)nc2)c(C)c1F)C(=O)NC(C)C [Compound 484]", "Human lymphocyte", 9.3],
  ["COc1c(C)c(-c2ccc(NCc3ccc(C)o3)cc2)c(OC)c(C)c1/C=C(\\C)C(=O)O [Compound 571]", "Human lymphocyte", 6.4]
]}

IC50 recorded for this compound, CCC/C=C/CNc1ccc(-c2c(C)c(OC)c(/C=C(\C)C(=O)O)c(C)c2OC)cc1 [Compound 573] , is 6.6

IC50 recorded for this compound, CC/C(=C\c1c(C)c(F)c(-c2ccc(NC(C)C)cc2)c(C)c1F)C(=O)N[C@H](C)C(=O)O [Compound 495] , is 41

IC50 recorded for this compound, C/C(=C\c1c(C)c(C)c(-c2ccc(NC3CCCC3)cc2F)c(C)c1C)C(=O)NC1CCCC1 [Compound 459] , is 0.8

IC50 recorded for this compound, Cc1cc(-c2ccc(NC(C)C)cc2F)c(C)cc1/C=C(/F)C(=O)NC(C)C [Compound 201] , is 0.6

IC50 recorded for this compound, COc1cc(-c2ccc(NC(C)C)cc2F)c(OC)cc1/C(C)=C/C(=O)NC(C)C [Compound 40] , is 3.7
